Values compiled from the Deep4Chem optical property database.

- test_method_notes: solvent given as SMILES
- applied_conditions: in ClC(Cl)(Cl)Cl
assay_metric: emission maximum (nm)
State just the number; it will be interpreted in nm.

INPUT: Reported emission maximum for CN(C)c1ccc(/C=C/C=C/c2nc3ccccc3o2)cc1 : what is it?
OUTPUT: 491

INPUT: Reported emission maximum for Cc1ccc(-c2cc(-c3ccccc3)c(C#N)c(=S)[nH]2)cc1 : what is it?
OUTPUT: 508

INPUT: Reported emission maximum for CCNc1ccc(NCC)c2c1C(=O)c1ccccc1C2=O : what is it?
OUTPUT: 679

INPUT: Reported emission maximum for O=C1c2ccccc2-c2ccc(N3CCOCC3)c3cccc1c23 : what is it?
OUTPUT: 552

INPUT: Reported emission maximum for O=CN1N=C(c2ccc(Br)cc2)C[C@@H]1c1ccccc1 : what is it?
OUTPUT: 351

INPUT: Reported emission maximum for CCCCCCC(CCCCCC)n1c(=O)c2c3ccc4cccc5c6cccc7ccc(c2c1=O)c(c76)c3c45 : what is it?
OUTPUT: 482

INPUT: Reported emission maximum for CC1=[O+][B-]2(OC(=O)C(=O)O2)OC(c2c3ccccc3cc3ccccc23)=C1 : what is it?
OUTPUT: 514

INPUT: Reported emission maximum for F[B-]1(F)OC(c2ccc3ccccc3c2)=CC(c2ccc3ccccc3c2)=[O+]1 : what is it?
OUTPUT: 428

INPUT: Reported emission maximum for CN(C)/C=N\c1ccc2c3c(cccc13)C(=O)c1ccccc1-2 : what is it?
OUTPUT: 540

INPUT: Reported emission maximum for Cc1ccc(Nc2ccc(Nc3ccc(C)cc3)c3c2C(=O)c2ccccc2C3=O)cc1 : what is it?
OUTPUT: 685

INPUT: Reported emission maximum for CN(C)c1ccc(/C=C/C=C2\CC/C(=C\C=C\c3ccc(N(C)C)cc3)C2=O)cc1 : what is it?
OUTPUT: 537
